Molecular target: Phosphatidylinositol 4,5-bisphosphate 3-kinase catalytic subunit beta isoform (Homo sapiens, UniProt P42338)
Sequence (P42338 whole entry, canonical isoform): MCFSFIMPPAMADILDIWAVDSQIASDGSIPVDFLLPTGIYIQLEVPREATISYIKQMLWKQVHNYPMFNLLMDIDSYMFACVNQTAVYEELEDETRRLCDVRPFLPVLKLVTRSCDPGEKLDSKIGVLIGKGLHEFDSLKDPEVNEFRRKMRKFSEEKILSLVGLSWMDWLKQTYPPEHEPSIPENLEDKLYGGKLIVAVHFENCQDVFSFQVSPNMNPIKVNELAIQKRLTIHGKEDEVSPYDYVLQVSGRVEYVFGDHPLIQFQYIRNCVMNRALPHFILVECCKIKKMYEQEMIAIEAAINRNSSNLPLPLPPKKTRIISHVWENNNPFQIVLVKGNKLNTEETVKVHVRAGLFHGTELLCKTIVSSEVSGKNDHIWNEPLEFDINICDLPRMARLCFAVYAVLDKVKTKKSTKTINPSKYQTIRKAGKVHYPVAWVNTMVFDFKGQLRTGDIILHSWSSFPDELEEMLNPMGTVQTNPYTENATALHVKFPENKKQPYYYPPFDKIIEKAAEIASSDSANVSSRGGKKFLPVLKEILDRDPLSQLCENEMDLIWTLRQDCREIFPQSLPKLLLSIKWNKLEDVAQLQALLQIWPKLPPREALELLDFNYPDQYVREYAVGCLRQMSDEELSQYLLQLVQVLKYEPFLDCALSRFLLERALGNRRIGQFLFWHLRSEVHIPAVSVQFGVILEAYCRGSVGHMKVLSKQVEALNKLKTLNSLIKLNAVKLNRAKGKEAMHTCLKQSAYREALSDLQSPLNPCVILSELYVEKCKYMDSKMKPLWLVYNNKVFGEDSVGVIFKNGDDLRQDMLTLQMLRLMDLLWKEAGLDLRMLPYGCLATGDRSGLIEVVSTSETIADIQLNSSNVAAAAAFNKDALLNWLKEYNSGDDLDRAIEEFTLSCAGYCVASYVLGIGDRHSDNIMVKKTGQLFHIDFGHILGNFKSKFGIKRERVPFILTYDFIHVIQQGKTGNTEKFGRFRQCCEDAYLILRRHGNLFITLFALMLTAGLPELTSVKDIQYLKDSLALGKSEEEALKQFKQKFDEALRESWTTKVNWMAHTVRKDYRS
Assay: Inhibition of PI3Kbeta (unknown origin)
Endpoint Name: IC50 (nM)
Supply the numeric figure in nM, leaving out any unit text.

Ask: Query IC50 for `Cc1nc(NC(=O)N2C[C@H](NS(=O)(=O)Cc3ccc(C(=O)NO)cc3)C[C@H]2C(N)=O)sc1-c1ccnc(C(C)(C)C(F)(F)F)c1`
Result: 880
